Recorded IC50 by entry
tested.system: Human immunodeficiency virus type 1 integrase (Human immunodeficiency virus 1, UniProt Q7ZJM1)
experiment: Inhibition of HIV1 His6-tagged integrase-human GST tagged LEDGF/p75 (373-442 residues) interaction after 30 mins by AlphaScreen assay
Write the value in µM as a bare number.

Would you please look over these solved cases?
molecule	IC50 / µM
O=C(/C=C/c1ccccc1O)c1c(O)cc(O)cc1O	6.21
O=C(NCc1cccc([N+](=O)[O-])c1)c1ccc(OCc2ccccc2)cc1O	3.84
COc1cccc(CC(NC(=O)CCCC[C@]23CCC(C)(C)C[C@H]2C2=CC[C@@H]4[C@@]5(C)CC[C@H](O)C(C)(C)[C@@H]5CC[C@@]4(C)[C@]2(C)CC3)C(=O)O)c1OC (mixture of isomers)	3.22
CC1(C)CC[C@]2(C(=O)O)CC[C@]3(C)C(=CC[C@@H]4[C@@]5(C)CC[C@H](OCc6cccc(C(=O)O)c6)C(C)(C)[C@@H]5CC[C@]43C)[C@@H]2C1	1.14
O=C(/C=C/c1cccc(O)c1O)c1ccc(O)cc1O [2,3,2',4'-TETRAHYDROXYCHALCONE]	1.7
O=C(/C=C/c1ccccc1O)c1ccc(O)c(O)c1	3.67

May I ask what IC50 has been recorded for O=C(/C=C/c1ccccc1O)c1cccc(O)c1O ?
1.61

Let us now turn to CC1(C)CC[C@]2(C(=O)O)CC[C@]3(C)C(=CC[C@@H]4[C@@]5(C)CC[C@H](OCc6ccccc6)C(C)(C)[C@@H]5CC[C@]43C)[C@@H]2C1
0.7

Let us now turn to O=C(/C=C/c1ccccc1Cl)c1ccc(O)cc1O
0.32
